assay: in vitro; settings: rat, gh3-tre-luc cells, AC50 (uM) modified / 1000, Tox21_110001=Tox21_300792; viability, 1 nM T3 present, 24 h
quantity-kind: CC50 at 24 h

// query State, in one line, measured CC50 at 24 h of COC(=O)Cc1ccccc1 [Methyl phenylacetate]
// result > 90 µM

---

test: in vitro; conditions: rat, gh3-tre-luc cells, AC50 (uM) modified / 1000
Structures can show the parent of a compound that is named as a salt.
quantity-kind: CC50 at 24 h (µM)
Answers are plain numbers, in µM.

C=C[C@]1(C)C[C@@H](OC(=O)CSC(C)(C)CNC(=O)[C@H](N)C(C)C)[C@]2(C)[C@H](C)CC[C@]3(CCC(=O)[C@H]32)[C@@H](C)[C@@H]1O
2.37

Proceed to the following item.
// query Retrieve CC50 at 24 h measured for COc1cccc(C(=O)CCN[C@@H](C)[C@H](O)c2ccccc2)c1 [l-Oxyfedrine hydrochloride] and print it.
// result 13.4

---

tested on: GH3-TRE-Luc cell line; settings: read-out: AC50 (uM) modified / 1000; Tox21_110001=Tox21_300015; viability, 1 nM T3 present, 24 h
quantity-kind: CC50 (µM)
Answers are plain numbers, in µM.

// query // fetch CC50 given entry Oc1ccc(O)cc1 [Hydroquinone]
// result 21.9

---

assay: in vitro; details: rat, gh3-tre-luc cells, AC50 (uM) modified / 1000
Where a name gives a salt, the structure may show the parent alone.
I'd appreciate it if you could supply CC50 at 24 h values for the items below.

Worked cases, CC50 at 24 h given:
O=C(O)c1ccncc1 [Isonicotinic acid]
> 90 µM
CS(=O)(=O)NC(=O)CCC/C=C\C[C@H]1C(=O)C[C@@H](O)[C@@H]1/C=C/[C@@H](O)COc1ccccc1 [Sulprostone]
> 50 µM
CC(C)(C)c1ccc(OCC2CO2)cc1 (stereo not drawn) [tert-Butyl phenyl glycidyl ether]
> 90 µM
CCNC(=O)C1CC(C)CCC1C(C)C (stereo not drawn) [N-Ethyl-4-menthane-3-carboxamide]
> 90 µM
O=C(CCCCCCCCC#CI)Oc1ccccc1 [Phenyl 11-iodo-10-undecynoate]
> 50 µM
CCNc1nc(NC(C)C)nc(OC)n1 [Atraton]
> 90 µM
COc1cc2nc(N3CCN(C(=O)C4CCCO4)CC3)nc(N)c2cc1OC (stereo not drawn) [Terazosin hydrochloride]
> 50 µM
CO[C@@H]1[C@H](OC(=O)NC(=O)CCl)CC[C@]2(CO2)[C@H]1[C@@]1(C)O[C@@H]1CC=C(C)C [o-(Chloroacetylcarbamoyl)fumagillol]
> 30 µM

The record that follows has no CC50 at 24 h shown yet.
// query For CCOC(=O)c1cccc(N)c1 , write its CC50 at 24 h.
// result > 50 µM

---

Assignment: determine reported CC50 at 24 h for the given compounds.
test: in vitro; conditions: rat, gh3-tre-luc cells, AC50 (uM) modified / 1000

C=CC1=C(C(=O)O)N2C(=O)[C@@H](NC(=O)/C(=N\O)c3csc(N)n3)[C@H]2SC1
> 50 µM
Cc1ccc(C(C)c2ccc(C)c(C)c2)cc1C
> 90 µM
Cc1nnc(SCC2=C(C(=O)O)N3C(=O)[C@@H](NC(=O)Cn4cnnn4)[C@H]3SC2)s1
> 50 µM
CCCCCCC1CCC(=O)O1 (stereo not drawn)
> 90 µM
CC(C)=CCC[C@@](C)(O)[C@H]1CC=C(C)CC1
> 50 µM
Nc1c(Cl)cc([N+](=O)[O-])cc1Cl
> 90 µM
C=Cc1ccc(OC(C)=O)cc1 [4-Ethenylphenyl acetate]
> 90 µM
CC/C=C\C/C=C\C/C=C\C/C=C\C/C=C\CCCC(=O)O
> 50 µM

For the next question, use this compound.
// query Could you please provide reported CC50 at 24 h for CCCCCCCCCCCCCCCCCC(=O)OCC(C)O (stereo not drawn) ? Thanks!
// result 20.7 µM
